target: human α1H T-type channels (Homo sapiens); construct: expressed in transfected cells; host or cells: HEK 293; assay: T-type calcium channel block, whole cell patch clamp in HEK cells (α1H); format: cell-based; details: HEK cells, patch clamp, mainly non-inactivated protocol; values above 10 μM shown as 10 μM; read-out: T-type Calcium Channel Block α1H IC50
Sequence (O95180 whole entry): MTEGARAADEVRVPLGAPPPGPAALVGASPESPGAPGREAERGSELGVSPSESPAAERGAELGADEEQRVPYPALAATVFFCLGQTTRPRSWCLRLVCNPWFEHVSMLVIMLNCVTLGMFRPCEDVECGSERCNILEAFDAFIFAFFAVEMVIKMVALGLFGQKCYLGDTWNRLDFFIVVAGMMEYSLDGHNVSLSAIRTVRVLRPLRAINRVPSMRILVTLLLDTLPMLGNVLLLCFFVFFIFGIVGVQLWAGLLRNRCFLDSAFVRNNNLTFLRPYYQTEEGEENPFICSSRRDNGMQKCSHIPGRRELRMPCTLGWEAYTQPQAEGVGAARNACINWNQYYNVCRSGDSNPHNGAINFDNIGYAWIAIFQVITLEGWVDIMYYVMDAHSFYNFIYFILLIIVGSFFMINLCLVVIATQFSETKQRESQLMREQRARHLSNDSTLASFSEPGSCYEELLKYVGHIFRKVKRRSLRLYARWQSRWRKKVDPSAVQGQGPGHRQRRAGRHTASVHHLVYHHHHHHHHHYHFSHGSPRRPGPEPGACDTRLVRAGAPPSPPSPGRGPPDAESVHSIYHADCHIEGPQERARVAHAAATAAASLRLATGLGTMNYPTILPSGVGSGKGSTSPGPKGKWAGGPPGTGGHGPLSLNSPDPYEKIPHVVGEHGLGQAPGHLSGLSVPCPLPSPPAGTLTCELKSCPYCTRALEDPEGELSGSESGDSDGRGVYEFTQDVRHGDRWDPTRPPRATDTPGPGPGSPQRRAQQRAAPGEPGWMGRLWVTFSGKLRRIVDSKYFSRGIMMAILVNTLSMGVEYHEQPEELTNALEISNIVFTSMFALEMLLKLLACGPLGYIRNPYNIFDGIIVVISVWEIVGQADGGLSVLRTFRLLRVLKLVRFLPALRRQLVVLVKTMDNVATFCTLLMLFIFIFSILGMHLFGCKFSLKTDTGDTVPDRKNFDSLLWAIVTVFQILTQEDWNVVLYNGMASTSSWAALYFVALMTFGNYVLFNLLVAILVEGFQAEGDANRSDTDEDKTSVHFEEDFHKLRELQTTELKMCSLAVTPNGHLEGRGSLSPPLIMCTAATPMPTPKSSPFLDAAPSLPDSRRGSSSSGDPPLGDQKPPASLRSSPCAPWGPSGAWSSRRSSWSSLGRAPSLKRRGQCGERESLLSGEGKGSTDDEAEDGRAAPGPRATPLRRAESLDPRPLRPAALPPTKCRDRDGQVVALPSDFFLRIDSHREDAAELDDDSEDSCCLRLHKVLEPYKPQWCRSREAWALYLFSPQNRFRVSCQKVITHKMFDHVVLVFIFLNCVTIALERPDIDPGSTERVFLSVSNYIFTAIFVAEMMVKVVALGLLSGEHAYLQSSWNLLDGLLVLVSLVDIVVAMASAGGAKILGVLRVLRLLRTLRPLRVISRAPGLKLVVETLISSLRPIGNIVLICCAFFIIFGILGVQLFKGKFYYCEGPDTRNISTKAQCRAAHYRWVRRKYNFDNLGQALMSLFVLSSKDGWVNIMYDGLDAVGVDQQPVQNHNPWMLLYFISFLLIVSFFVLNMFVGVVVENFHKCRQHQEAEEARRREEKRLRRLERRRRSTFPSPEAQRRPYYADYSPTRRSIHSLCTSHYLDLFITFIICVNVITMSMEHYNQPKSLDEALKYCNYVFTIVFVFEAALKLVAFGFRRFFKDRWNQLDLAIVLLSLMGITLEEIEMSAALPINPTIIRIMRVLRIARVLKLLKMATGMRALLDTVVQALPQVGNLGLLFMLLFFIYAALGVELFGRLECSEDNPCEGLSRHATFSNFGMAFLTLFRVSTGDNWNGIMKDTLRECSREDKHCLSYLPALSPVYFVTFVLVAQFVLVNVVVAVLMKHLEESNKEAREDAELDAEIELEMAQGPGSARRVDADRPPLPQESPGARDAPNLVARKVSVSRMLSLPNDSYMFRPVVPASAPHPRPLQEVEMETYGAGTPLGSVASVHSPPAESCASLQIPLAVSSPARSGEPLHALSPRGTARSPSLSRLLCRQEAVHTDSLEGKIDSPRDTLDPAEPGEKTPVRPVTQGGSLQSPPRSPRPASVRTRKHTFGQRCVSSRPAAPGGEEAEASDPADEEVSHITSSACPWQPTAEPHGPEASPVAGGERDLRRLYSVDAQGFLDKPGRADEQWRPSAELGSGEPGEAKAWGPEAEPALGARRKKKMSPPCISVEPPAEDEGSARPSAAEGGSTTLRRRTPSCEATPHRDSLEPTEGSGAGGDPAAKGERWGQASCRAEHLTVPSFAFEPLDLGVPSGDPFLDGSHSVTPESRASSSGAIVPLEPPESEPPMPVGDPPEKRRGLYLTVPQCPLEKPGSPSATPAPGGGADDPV
Label 1.0 when IC50 is strictly below 0.6 µM; at or above that, label 0.0.

# compound, discrete.label
data = [
    ("COc1cc(F)cc(C(=O)NCC2CCN(CCNC(=O)C(C)(C)C(F)(F)F)CC2)c1", 1.0),
    ("NC1(C(=O)NCCN2CCC(CNC(=O)c3cc(F)cc(C(F)(F)F)c3)CC2)CCC1", 0.0),
    ("CS(=O)(=O)c1cc(C(=O)NCC2CCN(CC(=O)N3CCC[C@@H]3C(F)(F)F)CC2)cc(C(F)(F)F)c1", 0.0),
    ("O=C(NCC1CCN(CC(=O)N2CCCC2C(F)(F)F)CC1)c1cc(C(F)(F)F)cc(C(F)(F)F)c1 (centres unmarked)", 1.0),
    ("O=C(NCC1CCN(CCNS(=O)(=O)C2CC2)CC1)c1cccc(Br)c1", 0.0),
    ("CC(C)(C)NC(=O)CN1CCC(CNC(=O)c2cc(F)cc(F)c2)CC1", 1.0),
]

Does the reported IC50 of the following compound sit strictly below 0.6 µM? CC(C)NC(=O)CN1CCC(CNC(=O)c2cccc(OC(F)(F)F)c2)CC1
0.0

Does the reported IC50 of the following compound sit strictly below 0.6 µM? CN(C(=O)CN1CCC(CNC(=O)c2cc(F)cc(Cl)c2)CC1)C(C)(C)C
1.0

* * *

Below, each of the molecules is paired with its reported log10 of IC50 value.
molecular target: human α1H T-type channels (Homo sapiens); construct: expressed in transfected cells; host or cells: HEK 293; experiment: T-type calcium channel block, whole cell patch clamp in HEK cells (α1H); type: cell-based; settings: HEK cells, patch clamp, mainly non-inactivated protocol; values above 10 μM shown as 10 μM; read-out: T-type Calcium Channel Block α1H IC50
Please be aware that the numbers have been log10-transformed from IC50 in nM.

Reference set, count: 8
# molecular.string, log10 of IC50
data = [
    ("COCC(COC)NC(=O)CN1CCC(CNC(=O)c2cc(F)cc(C(F)(F)F)c2)CC1", 3.33),
    ("CC(C)(C)NC(=O)NC1(CN2CCC(CNC(=O)c3cc(C(F)(F)F)cc(C(F)(F)F)c3)CC2)CCCC1", 3.22),
    ("O=C(NCC1CCN(CCNC(=O)C2(C(F)(F)F)CC2)CC1)c1cc(C(F)(F)F)cc(C(F)(F)F)c1", 1.85),
    ("CC(C)(C)NC(=O)CN1CCC(CNC(=O)c2cccc(C(F)(F)F)c2)CC1", 2.15),
    ("COc1cc(OC)cc(C(=O)NCC2CCN(CCNC(=O)C(C)(C)C(F)(F)F)CC2)c1", 2.28),
    ("CC(C)(C(=O)NCCN1CCC(CNC(=O)c2cc(C(F)(F)F)cc(S(C)(=O)=O)c2)CC1)C(F)(F)F", 3.56),
    ("O=C(NCC1CCN(CCNC(=O)C2(C(F)(F)F)CCC2)CC1)c1cccc(Cl)c1", 2.28),
    ("O=C(CC1CC1)NCCN1CCC(CNC(=O)c2cc(C(F)(F)F)cc(C(F)(F)F)c2)CC1", 2.63),
]

Can you look up log10 of IC50 on human α1H T-type channels (Homo sapiens) for Cc1cc(C)cc(C(=O)NCC2CCN(CC(=O)N3CCC[C@H]3C(F)(F)F)CC2)c1 ?
2.32

Can you look up log10 of IC50 on human α1H T-type channels (Homo sapiens) for COc1cc(F)cc(C(=O)NCC2CCN(CC(=O)NC(C)C)CC2)c1 ?
3.23

Can you look up log10 of IC50 on human α1H T-type channels (Homo sapiens) for CC(C)(C)C(=O)NCCN1CCC(CNC(=O)/C=C/c2cc(Cl)cc(Cl)c2)CC1 ?
3.51

Can you look up log10 of IC50 on human α1H T-type channels (Homo sapiens) for O=C(NCC1CCN(CCNS(=O)(=O)C2CC2)CC1)c1cc(C(F)(F)F)cc(C(F)(F)F)c1 ?
2.87
